Parameter: differential viability (reversal). Scope: all listed entries.
experiment: reversal of MRP1-mediated doxorubicin resistance, pilot screen, H69AR cells, doxorubicin co-treatment (AID 601); settings: H69AR cells + 2 uM doxorubicin, CellTiter-Glo, 72 h; at 10 µM; stronger effect = higher value
Report the figure in % without appending any unit label.

Known results for compounds:
>>> recordedmeasurement("COc1ccc(CCN2C(=O)CC(N3CCN(S(=O)(=O)c4ccccc4)CC3)C2=O)cc1 (stereo unspecified)")
-9.06
>>> recordedmeasurement("COCCn1c(C)c(C(=O)O)sc1=S")
12.4

Query string: # differential viability (reversal) lookup, item COc1ccccc1C(=O)NC(C)C(c1cccs1)N1CCN(C)CC1 (stereo unspecified)
Result string: -0.4

Query string: # differential viability (reversal) lookup, item `CCOC(=O)N1CCN(Cc2ccccc2F)CC1`
Result string: -2.15
